Target: C-X-C chemokine receptor type 6 (Homo sapiens) (UniProt O00574)
Sequence (O00574 whole entry, looked up): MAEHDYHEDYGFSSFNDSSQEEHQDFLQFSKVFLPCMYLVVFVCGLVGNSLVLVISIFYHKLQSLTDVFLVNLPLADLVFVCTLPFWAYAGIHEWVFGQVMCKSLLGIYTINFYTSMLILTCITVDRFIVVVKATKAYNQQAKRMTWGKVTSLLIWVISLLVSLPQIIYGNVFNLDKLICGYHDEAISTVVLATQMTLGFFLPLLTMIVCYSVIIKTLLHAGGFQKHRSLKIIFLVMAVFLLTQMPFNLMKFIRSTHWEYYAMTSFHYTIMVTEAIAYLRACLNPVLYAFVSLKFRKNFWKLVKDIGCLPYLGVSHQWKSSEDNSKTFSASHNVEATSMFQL
Assay: potency against CXCR6 with APJ panel – cell-based, beta-arrestin, DiscoveRx, uHTS hits, dose response (AID 624129)
Settings: CXCR6 beta-arrestin (DiscoveRx) antagonist cell assay, CXCR6, run 2, dose range 1, at 79 µM (top of the series)
quantity.name: inhibition (%)

>  <molecule>
CC(=O)Nc1nc2ccccc2n1CCOc1ccccc1Cl

>  <quantity.name>
inhibition

>  <measured.number>
80.9

$$$$
>  <molecule>
CCC1=NN(C(=O)c2ccc([N+](=O)[O-])cc2)C(O)(c2ccccc2)C1 (stereo not drawn)

>  <quantity.name>
inhibition

>  <measured.number>
91.7

$$$$
>  <molecule>
CCOC(=O)C1CCCN(c2c(C(=O)c3ccccc3)cnc3ccc(OC)cc23)C1 (stereo not drawn)

>  <quantity.name>
inhibition

>  <measured.number>
99.5

$$$$
>  <molecule>
Cc1cccc(Cc2cnc(N3C(=N)SC(C)C3=O)s2)c1 (stereo not drawn)

>  <quantity.name>
inhibition

>  <measured.number>
41.4

$$$$
>  <molecule>
O=C1CC(Sc2nnnn2-c2ccccc2)C(=O)N1c1cccc(Cl)c1 (stereo not drawn)

>  <quantity.name>
inhibition

>  <measured.number>
112

$$$$
>  <molecule>
C[n+]1ccc(/C=N/Nc2nc(Cl)c(C#N)c(Cl)c2Cl)cc1

>  <quantity.name>
inhibition

>  <measured.number>
90.5

$$$$
>  <molecule>
CCn1c(=O)cc(NC2=NCC(C)CN2c2cccc(Cl)c2)n(C)c1=O (stereo not drawn)

>  <quantity.name>
inhibition

>  <measured.number>
79

$$$$
>  <molecule>
COc1cc(/C=C(\C#N)c2nc3ccccc3o2)ccc1O

>  <quantity.name>
inhibition

>  <measured.number>
73.9

$$$$
>  <molecule>
CCCOc1ccc(CN(CCC#N)C(=S)NC(=O)c2ccccc2)cc1

>  <quantity.name>
inhibition

>  <measured.number>
68.9

$$$$
>  <molecule>
COc1cc(/C=C/C(O)=C/C(=O)/C=C/c2ccc(O)cc2)ccc1O

>  <quantity.name>
inhibition

>  <measured.number>
98.4

$$$$
>  <molecule>
CC(=O)Nc1ccc2c(c1)Cc1cc(N3C(=O)C=CC3=O)ccc1-2

>  <quantity.name>
inhibition

>  <measured.number>
112

$$$$
>  <molecule>
Cc1ccc(NC(=S)NNc2ccc(C(=O)O)cc2[N+](=O)[O-])cc1C

>  <quantity.name>
inhibition

>  <measured.number>
62

$$$$
>  <molecule>
O=C(Nc1ccccc1)c1nnsc1S(=O)c1ccc(Cl)cc1 (stereo not drawn)

>  <quantity.name>
inhibition

>  <measured.number>
111

$$$$
>  <molecule>
COC(=O)c1ccc(CCc2cc(O)c(Br)cc2O)cc1

>  <quantity.name>
inhibition

>  <measured.number>
111

$$$$
>  <molecule>
CN(C)/C=C/c1oc2ccc(O)cc2c1[N+](=O)[O-]

>  <quantity.name>
inhibition

>  <measured.number>
93.1

$$$$
>  <molecule>
COc1cc(/C=C/c2ccc3cccc(OC)c3n2)c(OC(C)=O)c([N+](=O)[O-])c1

>  <quantity.name>
inhibition

>  <measured.number>
78.8

$$$$
>  <molecule>
CCOC(=O)[C@]12Cc3cc(Cl)ccc3[C@H]1N(C1CCCCC1)C(=O)c1cc(OC)ccc12

>  <quantity.name>
inhibition

>  <measured.number>
113

$$$$
>  <molecule>
Cc1nnc(Sc2cc(NCCO)c([N+](=O)[O-])c3nonc23)s1

>  <quantity.name>
inhibition

>  <measured.number>
114

$$$$
>  <molecule>
C=C1C(=O)[C@]23C[C@H]1CCC2[C@@]1(C)C(C[C@@H]3O)[C@](C)(C(=O)OC)CC[C@@H]1O (stereo partly drawn)

>  <quantity.name>
inhibition

>  <measured.number>
109

$$$$
>  <molecule>
O=C(N/N=C/c1ccc([N+](=O)[O-])o1)c1sc2ccccc2c1Cl

>  <quantity.name>
inhibition

>  <measured.number>
97

$$$$
>  <molecule>
CCCCC(=O)NC(=S)Nc1ccccc1C(=O)Nc1ccccc1

>  <quantity.name>
inhibition

>  <measured.number>
79.2

$$$$
>  <molecule>
CNC(=O)c1nnsc1S(=O)c1ccc(Cl)cc1 (stereo not drawn)

>  <quantity.name>
inhibition

>  <measured.number>
112

$$$$
>  <molecule>
CCC(C)c1ccc(O)c(NC(=S)NC(=O)c2cccs2)c1 (stereo not drawn)

>  <quantity.name>
inhibition

>  <measured.number>
82.8

$$$$
>  <molecule>
O=[N+]([O-])/C=C/c1ccc2c(ccn2Cc2ccccc2)c1

>  <quantity.name>
inhibition

>  <measured.number>
111

$$$$
>  <molecule>
COC(=O)C1=C(C(=O)OC)SC2(S1)C(C(=O)OC)=C(C(=O)OC)Sc1c2ssc1=O

>  <quantity.name>
inhibition

>  <measured.number>
112

$$$$
>  <molecule>
C=CC[n+]1c(-c2ccc(Cl)cc2Cl)csc1Nc1c(C)n(C)n(-c2ccccc2)c1=O

>  <quantity.name>
inhibition

>  <measured.number>
101

$$$$
>  <molecule>
COc1cccc(/C=C2/CCC(CN(C)C)C2=O)c1 (stereo not drawn)

>  <quantity.name>
inhibition

>  <measured.number>
111

$$$$
>  <molecule>
CCOc1cc(/C=C2\N=C(SC)SC2=O)cc([N+](=O)[O-])c1OC(C)=O

>  <quantity.name>
inhibition

>  <measured.number>
98.2

$$$$
>  <molecule>
COc1cc(N2C(=O)C=CC2=O)ccc1N1C(=O)C=CC1=O

>  <quantity.name>
inhibition

>  <measured.number>
112

$$$$
>  <molecule>
CCOc1ccc(/C=C/[N+](=O)[O-])c2ccccc12

>  <quantity.name>
inhibition

>  <measured.number>
109

$$$$
>  <molecule>
O=C(COc1ccc(Br)cc1Cl)NC(=S)N1CCc2ccccc21

>  <quantity.name>
inhibition

>  <measured.number>
94.9

$$$$
>  <molecule>
CC(=O)OC1CCC2(C)C(CCC3C4CC=C(C(C)=O)C4(C)OC(=O)CC32)C1 (stereo not drawn)

>  <quantity.name>
inhibition

>  <measured.number>
96.2

$$$$
>  <molecule>
Cc1cc(C)cc(N2C(=O)CC(Sc3nnnn3-c3ccccc3)C2=O)c1 (stereo not drawn)

>  <quantity.name>
inhibition

>  <measured.number>
113

$$$$

---

Biological target: UniProt O00574
Test: potency against CXCR6 with APJ panel – cell-based, beta-arrestin, DiscoveRx, uHTS hits, dose response (AID 624129)
Settings: CXCR6 beta-arrestin (DiscoveRx) antagonist cell assay, CXCR6, run 2, dose range 2
Checkbox rule: IC50 lower than 7 µM = Criterion met; IC50 not lower than 7 µM = Criterion not met.

>  <molecule>
CCOc1cc(/C=C2\C(=O)N(c3cccc(C(F)(F)F)c3)C(=O)c3ccccc32)ccc1O

>  <discrete.label>
Criterion not met

$$$$
>  <molecule>
Cc1cccc(Cc2cnc(N3C(=N)SC(C)C3=O)s2)c1 (centres undefined)

>  <discrete.label>
Criterion not met

$$$$
>  <molecule>
Cc1ccc(NC(=S)NNc2ccc(C(=O)O)cc2[N+](=O)[O-])cc1C

>  <discrete.label>
Criterion not met

$$$$
>  <molecule>
Cc1c(Nc2cc(Cl)c3nonc3c2[N+](=O)[O-])c(=O)n(-c2ccccc2)n1C

>  <discrete.label>
Criterion met

$$$$
>  <molecule>
CCc1nc2c(OCCC3CCCCC3)cccn2c1N(C)C(=O)c1ccc(C)cc1

>  <discrete.label>
Criterion not met

$$$$
>  <molecule>
COC(=O)c1cc(CSc2nc3ccc(C)cc3[nH]2)oc1C

>  <discrete.label>
Criterion not met

$$$$
>  <molecule>
Cc1cccc(NC(=S)N/N=C/c2ccc([N+](=O)[O-])s2)c1

>  <discrete.label>
Criterion not met

$$$$
>  <molecule>
O=C(Nc1ccc(Oc2ccccc2)cc1)c1csc([C@@H]2O[C@H](CO)[C@H](O)[C@H](O)[C@H]2O)n1

>  <discrete.label>
Criterion not met

$$$$
>  <molecule>
COc1cc(C(=O)NC2CC3CCCC(C2)N3CC(=O)Nc2ccccc2)cc(OC)c1OC (centres undefined)

>  <discrete.label>
Criterion met

$$$$
>  <molecule>
Cc1c(Cl)sn(-c2ccc(Cl)cc2)c1=O

>  <discrete.label>
Criterion not met

$$$$
>  <molecule>
O=C(NC(=S)Nc1ccccc1O)c1cccnc1

>  <discrete.label>
Criterion not met

$$$$
>  <molecule>
O=C1C(Cc2ccccc2)Nc2ncnc(N3CCN(c4ccccc4)CC3)c2N1Cc1ccc(Cl)cc1 (centres undefined)

>  <discrete.label>
Criterion met

$$$$
>  <molecule>
Cc1ccc(OCC(=O)NNC(=S)NC(=O)C2CC2)c(C)c1

>  <discrete.label>
Criterion not met

$$$$

---

List of pIC50 values.
Target: C-X-C chemokine receptor type 6 (Homo sapiens)
Experiment: potency against CXCR6 with APJ panel – cell-based, beta-arrestin, DiscoveRx, uHTS hits, dose response (AID 624129)
Settings: CXCR6 beta-arrestin (DiscoveRx) antagonist cell assay, CXCR6, dose range 1, mean IC50 across replicates
pIC50: −log10 of the molar value.

>  <smiles.string>
O=C(C#Cc1ccccc1)c1ccc([N+](=O)[O-])cc1

>  <target.system>
C-X-C chemokine receptor type 6 (Homo sapiens)

>  <pIC50>
5.58

$$$$
>  <smiles.string>
C/C(=N\NC(=O)Cc1ccc(Cl)cc1)c1ccccn1

>  <target.system>
C-X-C chemokine receptor type 6 (Homo sapiens)

>  <pIC50>
5.43

$$$$
>  <smiles.string>
COC(=O)c1ccc(C)c(-n2c(=O)n(Cc3ccccc3)c(=O)c3[nH]cnc32)c1

>  <target.system>
C-X-C chemokine receptor type 6 (Homo sapiens)

>  <pIC50>
4.89

$$$$
